Test system: COLO 205 colon
Experiment: NCI-60 one-dose screen, 48 h
Reported conditions: 10 µM unless noted
About 83,000 compounds went through this panel and 20% of them were active in at least one assay; those are over-represented in the sample as a whole. Calls of active or inactive are those of the source. How the source made its calls: active means growth percent below 10; inactive means the rest.
Give one outcome, nothing more. List: YES for active, NO for inactive

[Q] Give the logged outcome of this assay for the following molecule: Clc1ccccc1Nc1nnc(-c2c[nH]c3ccccc23)o1
[A] YES

[Q] Give the logged outcome of this assay for the following molecule: CS(=O)(=O)c1ccc(-n2nc(C(=O)NCc3ccccc3)cc2-c2ccc(Cl)cc2)cc1
[A] NO

[Q] Give the logged outcome of this assay for the following molecule: O=C(N/N=C/c1c[nH]c2ccccc12)Nc1ccc(F)c(Cl)c1
[A] NO

[Q] Give the logged outcome of this assay for the following molecule: Cc1cccc(C)c1Nc1nnc(-c2c[nH]c3ccccc23)o1
[A] NO

[Q] Give the logged outcome of this assay for the following molecule: COc1ccc(-c2cc(C(=O)Oc3ccc(C=O)cc3OC)nn2-c2ccc(S(C)(=O)=O)cc2)cc1
[A] NO
